assay: Microsomal stability, human liver microsomes; format: in vitro ADME; conditions: percentage of compound remaining after 60 minutes, 3 μM compound
observation type: Microsomal Stability Human (%)

Which value of Microsomal Stability Human (%) has been reported for O=C(Nc1nc2cccc(-c3ccc(OCc4ccccc4)c(F)c3)n2n1)C1CC1 [Compound 15] in the records? ** (** 26-50)

And O=C(Nc1nc2cccc(-c3ccc(NS(=O)(=O)Cc4ccccc4)cc3)n2n1)C1CC1 [Compound 77] ? ** (** 26-50)

And then O=C(Nc1nc2cccc(-c3ccc(-c4ccccc4)cc3)n2n1)C1CC1 [Compound 7] , what is it? ** (** 26-50)

====

Molecular target: Recombinant human JAK1 catalytic domain (Homo sapiens (Human))
Sequence (P23458 850-1154): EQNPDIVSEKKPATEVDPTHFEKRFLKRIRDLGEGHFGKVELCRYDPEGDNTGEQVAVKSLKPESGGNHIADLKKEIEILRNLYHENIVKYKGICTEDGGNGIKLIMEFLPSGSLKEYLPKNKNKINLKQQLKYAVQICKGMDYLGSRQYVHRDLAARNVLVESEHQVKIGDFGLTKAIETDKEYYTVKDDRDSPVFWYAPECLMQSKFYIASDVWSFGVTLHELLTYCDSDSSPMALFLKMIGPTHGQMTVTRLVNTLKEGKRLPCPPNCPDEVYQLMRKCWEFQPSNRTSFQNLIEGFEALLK
Assay: JAK1 inhibition assay
Assay type: biochemical
Conditions: semi-quantitative score
Description: Plates were washed 6 times with 300 μL per well of a 75 mM phosphoric acid solution and the bottom of the plates was sealed. 40 μL/well of Microscint-20 was added, the top of the plates was sealed and readout was performed using the Topcount (Perkin Elmer). Kinase activity was calculated by subtracting counts per minute (cpm) obtained in the presence of a positive control inhibitor (10 μM staurosporine) from cpm obtained in the presence of vehicle. […]
pIC50: −log10 of the molar value.
observation type: pIC50

Example cases with answers are listed next.
Report pIC50 for O=C(Nc1nc2cccc(-c3ccc(OCc4ccc(C(F)(F)F)nc4)cc3)n2n1)C1CC1 [Compound 78] tested on Recombinant human JAK1 catalytic domain (Homo sapiens (Human)). > 7.00

Okay, and N#CC1CN(Cc2ccc(-c3cccc4nc(NC(=O)C5CC5)nn34)cc2)C1 [Compound 303] ? > 7.00

# repeat for O=C(Nc1ccc(-c2cccc3nc(NC(=O)C4CC4)nn23)cc1)C1CCC1 [Compound 70] 6.30 to 7.00

Proceed to the following item.
Tell me reported pIC50 for O=C(Nc1nc2cccc(-c3ccc(NS(=O)(=O)Cc4ccccc4)nc3)n2n1)C1CC1 [Compound 184] , tested with Recombinant human JAK1 catalytic domain (Homo sapiens (Human)). < 6.00

====

Listed here are molecules together with their documented IC50.
target: Recombinant human JAK3 catalytic domain (Homo sapiens (Human)); assay: JAK3 inhibition assay; type: biochemical; details: semi-quantitative score
Sequence (P52333 781-1124): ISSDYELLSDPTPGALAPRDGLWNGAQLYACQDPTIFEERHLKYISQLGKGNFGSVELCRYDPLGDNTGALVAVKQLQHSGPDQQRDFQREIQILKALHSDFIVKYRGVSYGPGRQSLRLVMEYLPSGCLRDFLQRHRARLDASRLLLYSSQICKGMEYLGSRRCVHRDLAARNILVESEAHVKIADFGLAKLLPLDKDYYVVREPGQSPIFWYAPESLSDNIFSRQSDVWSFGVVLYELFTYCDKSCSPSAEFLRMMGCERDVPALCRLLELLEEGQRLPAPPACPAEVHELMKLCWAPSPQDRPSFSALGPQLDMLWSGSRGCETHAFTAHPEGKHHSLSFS

What does the data say about its IC50? Entry: O=C(CCc1ccccc1)Nc1ccc(-c2cccc3nc(NC(=O)C4CC4)nn23)cc1 0.501 to 1 µM

// query: O=C(Nc1nc2cccc(-c3ccc(CC(=O)N4CC(F)(F)C4)cc3)n2n1)C1CC1 > 1 µM

Field entry: O=C(Nc1nc2cccc(-c3ccc(OC4CCCC4)cc3)n2n1)C1CC1 0.501 to 1 µM

Proceed to O=C(Nc1nc2cccc(-c3ccc(OCc4ccc(C(F)(F)F)nc4)cc3)n2n1)C1CC1 0.101 to 0.5 µM

Moving on to the next molecule: O=C(CCOc1ccccc1)Nc1ccc(-c2cccc3nc(NC(=O)C4CC4)nn23)cc1 > 1 µM

More entries:
Which IC50 is listed for O=C(Nc1nc2cccc(-c3ccc4c(ccn4Cc4ccccc4)c3)n2n1)C1CC1 ? 0.501 to 1 µM

====

biological target: Recombinant human JAK1 catalytic domain (Homo sapiens (Human)); experiment: JAK1 inhibition assay; format: biochemical; conditions: semi-quantitative score
pIC50: −log10 of the molar value.
observation type: pIC50

Below: 5 compounds and their reported pIC50.
May I ask what pIC50 has been recorded for O=C(Nc1nc2cccc(-c3ccc(NS(=O)(=O)c4ccc(F)cc4)cc3)n2n1)C1CC1 ? > 7.00

What about O=C(Nc1ccc(N2CCOCC2)nc1)c1ccc(-c2cccc3nc(NC(=O)C4CC4)nn23)cc1 ? > 7.00

Now consider COc1cccc(C(=O)Nc2ccc(-c3cccc4nc(NC(=O)C5CC5)nn34)cc2)c1 and answer again. 6.30 to 7.00

Try the compound O=C(Nc1nc2cccc(-c3ccc(-c4ccccc4)cc3)n2n1)C1CC1 > 7.00

Another compound: CC(C)(CN1CCOCC1)NC(=O)c1ccc(-c2cccc3nc(NC(=O)C4CC4)nn23)cc1 6.30 to 7.00

Continuing:
Query: pIC50; subject: CC1CC(C)CN(C(=O)c2ccc(-c3cccc4nc(NC(=O)C5CC5)nn34)cc2)C1 (centres unmarked) > 7.00

Same lookup for N#CC1CCN(C(=O)c2ccc(-c3cccc4nc(NC(=O)C5CC5)nn34)cc2)CC1 , please. > 7.00

Again, but for CN(C(=O)COc1ccc(-c2cccc3nc(NC(=O)C4CC4)nn23)cc1)c1ccccc1 > 7.00

Another compound: O=C(Nc1nc2cccc(-c3ccc(NS(=O)(=O)CCc4ccccc4)cc3)n2n1)C1CC1 > 7.00

# repeat for CC1CC(C)CN(C(=O)Cc2ccc(-c3cccc4nc(NC(=O)C5CC5)nn34)cc2)C1 (centres unmarked) 6.30 to 7.00

How about CC1CCCCN1C(=O)c1ccc(-c2cccc3nc(NC(=O)C4CC4)nn23)cc1 (centres unmarked) ? > 7.00

Field entry: O=C(NCc1cccnc1)c1ccc(-c2cccc3nc(NC(=O)C4CC4)nn23)cc1 6.30 to 7.00

Continue with O=C(Nc1nc2cccc(-c3ccc(CC(=O)N4CCS(=O)(=O)CC4)cc3)n2n1)C1CC1 > 7.00
